Reported viability, T/C by item:
# Test system: 898857-211-R-J1-PDC complex spheroids, growth % test/control;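 also: spheroids exposed to compound for seven days before readout; 100% = DMSO vehicle control wells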
# protocol details: Anticancer human tumor 898857-211-R-J1-PDC patient-derived melanoma cell line growth inhibition [RAS]
# assay context: second compound 0.00949 µM; first compound 1 µM; stronger effect = lower value
# Source text: RAS pathway inhibitors in Combinations in Complex Spheroids A high-throughput screen of multi-cell type tumor spheroids was designed to identify active combinations of RAS pathway inhibitors and targeted small molecules. Complex spheroids include a stromal component modeled by human endothelial cells (HUVEC) and fibroblasts modeled by human mesenchymal stem cells (MSCs). […] Compounds. […] If the clinical Cmax for an agent had not been determined, the highest concentration tested was 10 microM. […]
Express the result in % but write the number alone.

[[record]]
compound = "CC(Nc1ccc2c(c1)OCCn1cc(N3C(=O)OCC3C(F)F)nc1-2)C(N)=O (stereo not drawn) + CCn1c(-c2cc(N3CCN(C)CC3)cnc2C(C)OC)c2c3cc(ccc31)-c1csc(n1)CC(NC(=O)C1CC1C)C(=O)N1CCCC(N1)C(=O)OCC(C)(C)C2"
recorded_number = 73.5

[[record]]
compound = "CC(C)NCC(C(=O)N1CCN(c2ncnc3c2C(C)CC3O)CC1)c1ccc(Cl)cc1 (stereo not drawn) + CCn1c(-c2cccnc2C(C)OC)c2c3cc(ccc31)N1CCOC(CC(NC(=O)C(C(C)C)N(C)C(=O)C3(F)CCN(C(=O)C#CC(C)(C)N(C)C)CC3)C(=O)N3CCCC(N3)C(=O)OCC(C)(C)C2)C1"
recorded_number = 84.8

[[record]]
compound = "O=C(c1ccc(F)c(F)c1Nc1ccc(I)cc1F)N1CC(O)([C@@H]2CCCCN2)C1 + CCn1c(-c2cc(N3CCN(C)CC3)cnc2C(C)OC)c2c3cc(ccc31)-c1csc(n1)CC(NC(=O)C1CC1C)C(=O)N1CCCC(N1)C(=O)OCC(C)(C)C2"
recorded_number = 3.23

[[record]]
compound = "C[C@@H](NC(=O)c1ncnc(N)c1Cl)c1ncc(C(=O)Nc2cc(C(F)(F)F)c(Cl)cn2)s1 + CCn1c(-c2cccnc2C(C)OC)c2c3cc(ccc31)N1CCOC(CC(NC(=O)C(C(C)C)N(C)C(=O)C3(F)CCN(C(=O)C#CC(C)(C)N(C)C)CC3)C(=O)N3CCCC(N3)C(=O)OCC(C)(C)C2)C1"
recorded_number = 81.3

[[record]]
compound = "Cc1nc(N2CCC3(CC2)COC(C)C3N)c(CO)nc1Sc1ccnc(N)c1Cl (stereo not drawn) + CCn1c(-c2cc(N3CCN(C)CC3)cnc2C(C)OC)c2c3cc(ccc31)-c1csc(n1)CC(NC(=O)C1CC1C)C(=O)N1CCCC(N1)C(=O)OCC(C)(C)C2"
recorded_number = 103


Input line: Give the value of viability, T/C reported for the following: CC1(O)CCCC1n1c(=O)c(C(F)F)cc2cnc(NC3CCN(S(C)(=O)=O)CC3)nc21 (stereo not drawn) + CCn1c(-c2cc(N3CCN(C)CC3)cnc2C(C)OC)c2c3cc(ccc31)-c1csc(n1)CC(NC(=O)C1CC1C)C(=O)N1CCCC(N1)C(=O)OCC(C)(C)C2
Output line: 34.7

Input line: Give the value of viability, T/C reported for the following: CC(C)NCC(C(=O)N1CCN(c2ncnc3c2C(C)CC3O)CC1)c1ccc(Cl)cc1 (stereo not drawn) + CCn1c(-c2cc(N3CCN(C)CC3)cnc2C(C)OC)c2c3cc(ccc31)-c1csc(n1)CC(NC(=O)C1CC1C)C(=O)N1CCCC(N1)C(=O)OCC(C)(C)C2
Output line: 82

Input line: Give the value of viability, T/C reported for the following: C=CC(=O)N1CCN(c2nc(OCC3CCCN3C)nc3c(F)c(-c4nc(N)cc(C)c4C(F)(F)F)c(Cl)cc23)C(C)C1 (stereo not drawn) + CCn1c(-c2cc(N3CCN(C)CC3)cnc2C(C)OC)c2c3cc(ccc31)-c1csc(n1)CC(NC(=O)C1CC1C)C(=O)N1CCCC(N1)C(=O)OCC(C)(C)C2
Output line: 104

meta.source: PubChem BioAssay AID2060882
